test system: Fibroblast; test: Multiplex assay against human fibroblast; assay type: toxicity, cell-based; settings: 24 h, 10 µM, compound concentration 10 uM, replicate 2
Property measured: Population Normal (%)
Record the value in %, omitting the unit from your answer.

These solved cases illustrate the format of a correct answer.
* CCn1c(-c2nc3cc(C(=O)N4CCCC(N)C4)ccc3n2C)cc2ccccc21.Cl (stereo not given) | 95
* COc1cc2nc(N3CCN(C(=O)COc4c(OC)cccc4C(C)C)CC3)nc(N)c2cc1OC.Cl.Cl | 76
* CC(F)(F)CN1CCOc2c(nn(-c3ccccc3Cl)c2-c2ccc(Cl)cc2)C1=O | 98
* Cn1cc(C(=O)OCC2CCN(CCNS(C)(=O)=O)CC2)c2ccccc21 | 95
* Cc1cc(NC(=O)NCCN2CCC(O)(Cc3ccccc3)CC2)c2ccccc2n1 [PALOSURAN] | 96

Specify measured Population Normal (%) for CSc1nc(NC2CCCC2)c([N+](=O)[O-])c(NC2CCCC2)n1 [GS-39783] .
92

Identify the reported Population Normal (%) for the following entry. "S=C(NCCCc1c[nH]cn1)NCCCN(Cc1ccc(Cl)c(Cl)c1)c1ccc(Br)cn1"
95

Given COCCCN1CCC(NC(=O)c2cc(Cl)c(N)c3c2OCC3)CC1 [PRUCALOPRIDE] , respond with its Population Normal (%).
94

Indicate the recorded Population Normal (%) value for this compound: Cl.Cl.OCCOCCN1CCN(C(c2ccccc2)c2ccc(Cl)cc2)CC1 (stereo not given) [HYDROXYZINE HYDROCHLORIDE]
90

Consider the compound Cc1cc(-c2ccc3c(c2)CC[C@H]3N2CC3(CCN(C(=O)Cc4cn5cc(C)sc5n4)CC3)C2)ncn1 [PF-5190457] and give its recorded Population Normal (%).
94
